Quick reference: inhibition at 20 µM of the listed items.
- target system: his-galectin-3 (Homo sapiens, UniProt P17931)
- Construct: purchased Abcam
- Sequence (P17931 whole entry): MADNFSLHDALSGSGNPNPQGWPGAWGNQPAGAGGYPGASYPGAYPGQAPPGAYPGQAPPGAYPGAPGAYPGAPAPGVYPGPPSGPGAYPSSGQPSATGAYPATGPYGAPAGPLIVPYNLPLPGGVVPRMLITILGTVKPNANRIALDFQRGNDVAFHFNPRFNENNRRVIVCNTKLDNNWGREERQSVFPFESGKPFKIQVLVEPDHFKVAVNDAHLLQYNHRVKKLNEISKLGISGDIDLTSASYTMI
- assay remarks: TR-FRET assay (in vitro galectin-3 binding inhibitory activity test)
- protocol conditions: Table 1; compound at 20 μM; 60 nM his-galectin-3, 15 nM biotin-ASF; read-out: % Inhibitory activity (at 20 μM)
measure: inhibition at 20 µM

compound=OC[C@H]1O[C@@]2(CCCO2)[C@H](OCc2cccc(O)c2)[C@@H](n2cc(-c3cc(F)c(F)c(F)c3)nn2)[C@H]1O result="25 to 50%"
compound=O=C(N[C@@H]1CCO[C@]12O[C@H](CO)[C@H](O)[C@H](n1cc(-c3cc(F)c(F)c(F)c3)nn1)[C@H]2O)c1cccc(OC(F)(F)F)c1 result="50 to 75%"
compound=OC[C@H]1O[C@@]2(CCCCO2)[C@H](O)[C@@H](n2cc(-c3cc(F)c(F)c(F)c3)nn2)[C@H]1O result="25 to 50%"
compound=OC[C@H]1O[C@@]2(CCCCO2)[C@H](OCc2ccc3c(c2)OCO3)[C@@H](n2cc(-c3cc(F)c(F)c(F)c3)nn2)[C@H]1O result="25 to 50%"
compound="O=C1CCCC2(N1)O[C@H](CO)[C@H](O)[C@H](n1cc(-c3cc(F)c(F)c(F)c3)nn1)[C@H]2OCc1ccccc1 (stereo partly drawn)" result="< 25%"
compound=OC[C@H]1O[C@@]2(CCCO2)[C@H](OCc2cccnc2)[C@@H](n2cc(-c3cc(F)c(F)c(F)c3)nn2)[C@H]1O result="25 to 50%"
compound=OC[C@H]1O[C@@]2(CCCCO2)[C@H](OCc2ccccn2)[C@@H](n2cc(-c3cc(F)c(F)c(F)c3)nn2)[C@H]1O result="25 to 50%"
compound=COc1cccc(CC(=O)N2CCC[C@]3(C2)O[C@H](CO)[C@H](O)[C@H](n2cc(-c4cc(F)c(F)c(F)c4)nn2)[C@H]3O)c1 result="< 25%"
compound=O=C(N[C@@H]1CCO[C@]12O[C@H](CO)[C@H](O)[C@H](n1cc(-c3cc(F)c(F)c(F)c3)nn1)[C@H]2O)c1cccc(C(F)(F)F)c1 result="50 to 75%"
compound=O=C(N[C@@H]1CCO[C@]12O[C@H](CO)[C@H](O)[C@H](n1cc(-c3cc(F)c(F)c(F)c3)nn1)[C@H]2O)c1cccc(Br)c1 result="> 75%"
compound=O=C(O[C@@H]1[C@@H](n2cc(-c3cc(F)c(F)c(F)c3)nn2)[C@@H](O)[C@@H](CO)O[C@@]12CCCO2)c1ccc(F)cc1F result="< 25%"
compound=O=C(Cc1ccc(Cl)cc1)N[C@@H]1CCO[C@]12O[C@H](CO)[C@H](O)[C@H](n1cc(-c3cc(F)c(F)c(F)c3)nn1)[C@H]2O result="50 to 75%"

* * *

- target system: his-galectin-3 (Homo sapiens)
- Construct: purchased Abcam
- assay remarks: TR-FRET assay (in vitro galectin-3 binding inhibitory activity test)
- protocol conditions: Table 1; compound at 20 μM; 60 nM his-galectin-3, 15 nM biotin-ASF; read-out: % Inhibitory activity (at 20 μM)
measure: inhibition at 20 µM

compound=OC[C@H]1O[C@]2(OCC[C@H]2NCc2c(O)ccc(F)c2F)[C@H](O)[C@@H](n2cc(-c3cc(F)c(F)c(F)c3)nn2)[C@H]1O result="< 25%"
compound=O=C(N[C@@H]1CCO[C@]12O[C@H](CO)[C@H](O)[C@H](n1cc(-c3cc(F)c(F)c(F)c3)nn1)[C@H]2O)c1ccc(Oc2ccccc2)cc1 result="25 to 50%"
compound="O=C1CCCC2(O[C@H](CO)[C@H](O)[C@H](n3cc(-c4cc(F)c(F)c(F)c4)nn3)[C@H]2O)N1CC1CCS(=O)(=O)CC1 (stereo partly shown)" result="< 25%"
compound=OC[C@H]1O[C@]2(OCC[C@H]2NCC2CCCC2)[C@H](O)[C@@H](n2cc(-c3cc(F)c(F)c(F)c3)nn2)[C@H]1O result="< 25%"
compound=COc1cccc(CC(=O)N[C@@H]2CCO[C@]23O[C@H](CO)[C@H](O)[C@H](n2cc(-c4cc(F)c(F)c(F)c4)nn2)[C@H]3O)c1 result="50 to 75%"
compound=O=C(Cc1ccc(Oc2ccccc2)cc1)N[C@@H]1CCO[C@]12O[C@H](CO)[C@H](O)[C@H](n1cc(-c3cc(F)c(F)c(F)c3)nn1)[C@H]2O result="25 to 50%"
compound=O=C(N[C@@H]1CCO[C@]12O[C@H](CO)[C@H](O)[C@H](n1cc(-c3cc(F)c(F)c(F)c3)nn1)[C@H]2O)c1ccc2cc(Cl)ccc2c1 result="50 to 75%"
compound=OC[C@H]1O[C@]2(OCC[C@H]2NCc2cc(Cl)ccc2O)[C@H](O)[C@@H](n2cc(-c3cc(F)c(F)c(F)c3)nn2)[C@H]1O result="25 to 50%"
compound=O=C(Cc1cccc2ccccc12)N[C@@H]1CCO[C@]12O[C@H](CO)[C@H](O)[C@H](n1cc(-c3cc(F)c(F)c(F)c3)nn1)[C@H]2O result="25 to 50%"
compound=OC[C@H]1O[C@@]2(CCCCO2)[C@H](OCC(F)F)[C@@H](n2cc(-c3cc(F)c(F)c(F)c3)nn2)[C@H]1O result="25 to 50%"
compound=COc1cccc(C(=O)N[C@@H]2CCO[C@]23O[C@H](CO)[C@H](O)[C@H](n2cc(-c4cc(F)c(F)c(F)c4)nn2)[C@H]3O)c1 result="> 75%"
compound=OC[C@H]1O[C@@]2(CCCO2)[C@H](OCc2ccc3c(c2)OCO3)[C@@H](n2cc(-c3cc(F)c(F)c(F)c3)nn2)[C@H]1O result="25 to 50%"
compound=OC[C@H]1O[C@]2(OCC[C@H]2NCc2cccc(C(F)(F)F)c2)[C@H](O)[C@@H](n2cc(-c3cc(F)c(F)c(F)c3)nn2)[C@H]1O result="< 25%"
